Value source: PubChem BioAssay

Below, each entry is listed with its recorded composite z-score.
assay protocol: small-molecule binders of probe aNOTCH3, primary screen, biochemical, small-molecule microarray, 635/667 nm fluorescence (AID 1120);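 further: probe is a biotin-tagged antibody raised against NOTCH3 rather than NOTCH3 protein; score merges spot fluorescence near 667 nm with spot signal to noise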
experimental conditions: higher = more signal
No unit in the answer, only the number.

C[C@@H](ON=C1[C@H]2CCn3c(=O)n(-c4ccccc4)c(=O)n3[C@H]2[C@H](O)[C@@H]2O[C@H]12)c1cn([C@H](CO)Cc2ccccc2)nn1 = -0.216

Note composite z-score for the compound shown: "CCN1C(=O)[C@H]2[C@H]3[C@H](O)[C@H](O)CC(=NOC)[C@@H]3CC[C@H]2C1=O"
0.0297

Specify reported composite z-score for the compound shown: "C=C(C)C(=O)OC[C@@H]1CN2[C@@H](CC[C@@H](C)[C@@H]2c2ccc(Br)cc2)C(=O)O1"
-0.127

Recall and state the measured composite z-score for "C[C@@H](c1ccccc1)N1C(=O)[C@H]2[C@H]3[C@H](O)[C@H](O)CC(=O)[C@@H]3CC[C@H]2C1=O" .
-0.0345
